What TGI was measured for each of the following?
# Test system: CAKI-1 renal
# TEST_DESCRIPTION: NCI tumour cell line growth inhibition, 48 h

Param request: TGI | system CAKI-1 renal | item Nc1nc2c(ncn2C2CCC(CO)O2)c(=O)n1C(=O)c1ccccc1 (stereo unspecified) > 100 µM

Provide TGI, recorded with CAKI-1 renal, of CN(C)CCNc1nc2ccccc2c2c1CCCC2 44.7 µM

Tell me TGI of CN(C)c1ccc(/C=C/c2ccnc3c(O)cccc23)cc1 when tested on CAKI-1 renal. > 74.4 µM

Please report TGI with CAKI-1 renal for item OCc1cc2c(ccc3sc4ccc5sc6ccc7ncccc7c6c5c4c32)s1 . 36.6 µM

With CAKI-1 renal as the test system, provide measured TGI for this molecule: N#Cc1c(NC(=O)NCc2ccccc2)sc2c1CCCC2 > 100 µM

# assay system CAKI-1 renal: give TGI of CC(C)N1CC2CN(Cc3ccccc3)CC(C1)C2=O > 100 µM

Recall the reported TGI of CC1=NN(c2nc(N)nc(CBr)n2)C(C)(C)C1 when tested on CAKI-1 renal. 3.06 µM

Give measured TGI for CC(=O)Nc1ccc(/C=c2\sc3nnc(CCC(=O)Nc4ccccc4Cl)n3c2=O)cc1 (CAKI-1 renal). > 100 µM

Print CAKI-1 renal TGI for Cc1c(O)c2ccccc2oc1=O . > 100 µM

Supply TGI measured with CAKI-1 renal for COc1c(O)c(OC)c2oc(-c3ccc(O)c(O)c3)c(OC)c(=O)c2c1O . > 100 µM

For CAKI-1 renal, give the measured TGI of the entry O=C1/C(=C\c2ccc(F)cc2)CN(C(=O)c2ccccc2)C/C1=C\c1ccc(F)cc1 66.2 µM
